B1: tRNA (parent)
chain: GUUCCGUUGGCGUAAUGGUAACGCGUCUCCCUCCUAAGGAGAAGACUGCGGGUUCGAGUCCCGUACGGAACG

Variants of: B1
Assay: yeast fitness relative to wild type (ratio to wild type); higher = fitter; tRNA-Arg(CCU), competitive growth, 37 C, YPD
Fewer inactive variants are shown than the library holds.
Record Condition met whenever yeast fitness is at 0.6 or higher; record Condition not met when lower.

In plain terms: is recorded yeast fitness at least 0.6 for GUUCCGUUGGCGUAAUGGUAGCGCCUGUCCCUCCUAAGGAGCAGACUGCGGGUUCGAGUCCCGUACGCAACG [A21G G25C C27G A42C G68C] ? Condition not met

Would you say GUUCUGUUGGCGUAAUGGUAACGCGUCUUCCUCCUGAGGAGAAGACUGCGGGUUCGAGACCCGUACGGAACG [C5U C29U A36G U59A] shows yeast fitness at minimum 0.6? Condition not met

Does GUUGCGUUGGCGUAAUGGUAACGCGUCUCCGUCCUAAGGAGAAGACUGCGGGUUUGAGUCCCGUACGGAACG [C4G C31G C55U] have a reported yeast fitness of at least 0.6? Condition not met

Record GUUCCGUUGGCGUAAUGGUAACGGGACUCCCUCCUAAGGAGAAGAAUGCGGGUUCGACUCCCGUACGGAACG [C24G U26A C46A G58C] ; criterion: yeast fitness no lower than 0.6. Met? Condition not met

Is it the case that GUUCCGUUGGCGGAAUGGUAUGGCGCCUCCCUCCAAAGGAGAAGACUGCGGGUUCGAGUCCCGUGCGGACCG [U13G A21U C22G U26C U35A A65G A70C] has yeast fitness reaching or exceeding 0.6? Condition not met

yeast fitness >= 0.6 for GUUCCGUUGGCGUAAUGGAACCGCCUCUCCGUUCUAAGGAGAAGACUGCGGGUUCGAGUCCCGUACAGAACG [U19A A21C G25C C31G C33U G67A] ? Condition not met

Exam item: decide whether the reported yeast fitness for GUUCCGUUGGCGUAAUGGUAACGCGUCUCCCUCCUAAGGAGAAGAGUGCGGGUUCGAGUACCGUACGGAACG [C46G C60A] is at least 0.6. Condition not met

Is yeast fitness for GUUCCGUUGGCGUAAUGGUAACGCGUCUCCCUCCUAAGGAGAAGACUGCAGCUUCGAGUCCCGUACGGAACG [G50A G52C] at or above 0.6? Condition met

Is yeast fitness for GUUCAGUUGGCGUAAUGGUAACGCGUCUCCCGCCUAAGGAGAAGACUGCGGGUUUGAGUCCCGUACGGAACG [C5A U32G C55U] at or above 0.6? Condition not met

Could you verify whether the entry GUUCCGUUGGCGUAAUGGUAACGCGUCUCCCUCCUCAGGCGAAGACUGCGGGUUCGAGUCCCGUACGGAACG [A36C A40C] shows yeast fitness of no less than 0.6? Condition not met

Determine whether measured yeast fitness meets or exceeds 0.6 for GUUCCGUUGCCGUAAUGGUAACGCGAUUCCGUCCUAAGGAGUAGACAGCGGGCUCGAGUCCCGUACGGAACG [G10C U26A C27U C31G A42U U47A U53C] Condition met
